- tested-system: PTHR1 (Homo sapiens, UniProt Q03431)
- Sequence (Q03431 27-593): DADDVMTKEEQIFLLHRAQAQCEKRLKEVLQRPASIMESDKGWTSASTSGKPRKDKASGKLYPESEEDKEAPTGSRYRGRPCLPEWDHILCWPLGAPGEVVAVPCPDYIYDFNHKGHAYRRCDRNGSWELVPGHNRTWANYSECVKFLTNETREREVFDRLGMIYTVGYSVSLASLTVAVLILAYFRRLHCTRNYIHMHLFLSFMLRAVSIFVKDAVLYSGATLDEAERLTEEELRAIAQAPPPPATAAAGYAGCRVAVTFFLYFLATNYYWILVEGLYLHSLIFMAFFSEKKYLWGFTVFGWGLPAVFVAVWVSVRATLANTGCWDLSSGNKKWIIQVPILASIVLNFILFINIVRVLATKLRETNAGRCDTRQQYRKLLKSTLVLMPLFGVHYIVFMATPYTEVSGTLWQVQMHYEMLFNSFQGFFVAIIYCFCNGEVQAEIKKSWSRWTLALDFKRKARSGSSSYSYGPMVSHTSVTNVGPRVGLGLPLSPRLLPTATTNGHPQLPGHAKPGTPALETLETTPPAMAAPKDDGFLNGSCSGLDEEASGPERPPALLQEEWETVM
- assay-explanation: cAMP accumulation assay (HTRF) in CHO-K1/Ga15/PTHR1 cells
- Type: cell-based
- Parameters: host or cells: CHO-K1 (recombinant line CHO-K1/Ga15/PTHR1)
- settings: relative to PTH [1-34]; CHO-K1/Ga15/PTHR1 cells
Where no end group is shown, it is not given here.
test-readout: cAMP

Example results:
>>> df
                            sequence_record  test_readout  assay_result
0  AVAEIQLMHQRAKWSLREELEKLLKELLKEYI [Peptide R2-44]          cAMP            ++
1  AVAEIQLMHQRAKWGVELQLKVDLRRILEDVY [Peptide R2-35]          cAMP             +
2  GIAVLTILDLRAKLRAEYELREMLLRLLEEIF [Peptide R2-14]          cAMP            ++
3  AVAEIQLMHQRAKWELQEIGIAITLRLLARYI [Peptide R2-43]          cAMP            ++

Any idea what its cAMP is? The sequence is GIAVITIMIDYAKLRAEYELREMLLRLLEEIF [Peptide R2-22]
++

Any idea what its cAMP is? The sequence is AVAEIQLMHQRAKWRAEYELREMLLRLLEEIF [Peptide R1-96]
+

Any idea what its cAMP is? The sequence is VDFEIQLMQQRAQWIADYRIREFLDKLIAEIF [Peptide R1-94]
++

Any idea what its cAMP is? The sequence is AVAEIQLMHQRAKWDLLIELVKLLHELLKEYI [Peptide R2-40]
++

Any idea what its cAMP is? The sequence is GIAVITLMVLRALLELQEIGRKITLELLKEYI [Peptide R2-51]
++

Any idea what its cAMP is? The sequence is AVAEIQLMHQRAKWKLDLELAVSLRKILEDVY [Peptide R2-27]
+

Any idea what its cAMP is? The sequence is AVAEIQLMHQRAKWEIQEIGIKITLDLLQTLK [Peptide R2-41]
++

Any idea what its cAMP is? The sequence is AVAEIQLMHQRAKWGLEIELLKLLLSLLKEYI [Peptide R2-45]
++

Any idea what its cAMP is? The sequence is AVAEIQLMHQRAKWKLELELKVKLLEILKDVY [Peptide R2-25]
+

Any idea what its cAMP is? The sequence is GLAALTIGLLRAKLRAEYELREMLLRLLEEIF [Peptide R2-24]
++

Any idea what its cAMP is? The sequence is AVAEIQLMHQRAKWDVLIELAKLLAELLRRYH [Peptide R2-47]
++

Any idea what its cAMP is? The sequence is AVAEIQLMHQRAKWKLELELKAFLDQILKDVL [Peptide R2-36]
+

###

Recorded EC50 by entry
- tested-system: PTHR1 (Homo sapiens, UniProt Q03431)
- assay-explanation: β-arrestin2 recruitment BRET assay in transfected HEK293T cells
- Format: cell-based
- Design: Flag (N); Life Technologies Corporation, CA (arrestin cDNA); host or cells: HEK293T (CRL-3216, ATCC)
- settings: β-arrestin2 recruitment; replicate plates; read-out: −log10EC50 (converted)
Where no end group is shown, it is not given here.
Reply numerically in pM, unit not repeated.

Example results:
                            sequence_record  assay_result
0  AVAEIQLMHQRAKWGLDLELAVKLQEILKDVL [Peptide R2-28]        800000
1  LMHNLGKHLNSMERVEWLRKKLQDVHNFVA [PTH 7-36 antago, reference compound]         46900
2  GVAELQLMHDLAKIRAEYELREMLLRLLEEIF [Peptide R2-1]           622
3  AVAEIQLMHQRAKWKILEELLKILIDLLKQYI [Peptide R2-48]          21.2
4  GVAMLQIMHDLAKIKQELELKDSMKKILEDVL [Peptide R2-50]          30.4

Recall the recorded EC50 for AVAEIQLMHQRAKWEIQEIGIKITLDLLQTLK [Peptide R2-41] with PTHR1 (Homo sapiens, UniProt Q03431) and state it.
940000

Recall the recorded EC50 for SVMMIQVMHDLAKIRAEYELREMLLRLLEEIF [Peptide R2-8] with PTHR1 (Homo sapiens, UniProt Q03431) and state it.
349

The measured values listed here are drawn from patent US12344649B2.
